Data provenance is patent US20210045385A1.

Test system: ragweed (common ragweed, Ambrosia elatior)
Test: Test A preemergence, visual plant response rating
Assay type: in vivo
Settings: 125 g ai/ha, preemergence; 0 to 100 scale, 0 no effect, 100 complete control
Property measured: Ragweed plant response rating
Lab note: jot down the number only; don't add units.

* C=CCON=C(c1c(O)c(C)nn(C)c1=O)c1cc(Br)cc2ccccc12 | 80
* CO/N=C(\c1cccc(C#N)c1)c1c(O)c(C)nn(C)c1=O | 0
* CO/N=C(/c1cscc1C)c1c(O)c(C)nn(C)c1=O | 10

Data request, read-out Ragweed plant response rating, for CON=C(c1ccc(C)s1)c1c(O)c(C)nn(C)c1=O (mixture of isomers) 0

Data request, read-out Ragweed plant response rating, for CON=C(c1cc(C(F)(F)F)ccc1Cl)c1c(O)c(C)nn(C)c1=O 30

Data request, read-out Ragweed plant response rating, for CON=C(c1c(O)c(C)nn(C)c1=O)c1cccc2ccc(Cl)cc12 70

---

System: corn (Zea mays)
Test: Test A postemergence, visual plant response rating
Format: in vivo
Conditions: 500 g ai/ha, postemergence; 0 is no effect, 100 is complete control
Property measured: Corn plant response rating (0 to 100 scale)
Lab note: jot down the number only; don't add units.

Example entries begin here.
- C=CCO/N=C(/c1c(O)c(C)nn(C)c1=O)c1ccc(F)c2ccccc12: 30
- CO/N=C(/c1cccc(Cl)c1)c1c(O)c(C)nn(C)c1=O: 10
- CO/N=C(/c1cccc(C)c1C)c1c(O)c(C)nn(C)c1=O: 0
- CCc1ccccc1C(=NOC)c1c(O)c(C)nn(C)c1=O: 30
- CON=C(c1c(O)c(C)nn(C)c1=O)c1cccc2ccoc12: 0
- CCC(=O)Oc1c(C)nn(C)c(=O)c1C(=NOC)c1cccc2ccccc12: 50

Can you look up Corn plant response rating (0 to 100 scale) on corn (Zea mays) for CO/N=C(\c1cc(C)ccc1Cl)c1c(O)c(C)nn(C)c1=O ? 20

Can you look up Corn plant response rating (0 to 100 scale) on corn (Zea mays) for CON=C(c1cccc(C#N)c1)c1c(O)c(C)nn(C)c1=O ? 0

---

Test system: pigweed (Amaranthus retroflexus)
Assay: Test C preemergence, visual plant response rating
Type: in vivo
Conditions: 125 g ai/ha
As shown below, each of these compounds has a reported Pigweed plant response rating (0 to 100 scale) value.

Example entries begin here.
• CON=C(c1cc(Cl)cc(Cl)c1F)c1c(O)c(C)nn(C)c1=O [Compound 153] = 100
• CO/N=C(\c1cc(F)cc(F)c1C)c1c(O)c(C)nn(C)c1=O [Compound 152] = 30

Data request, read-out Pigweed plant response rating (0 to 100 scale), for CCON=C(c1cc(Cl)cc(Br)c1)c1c(O)c(C)nn(C)c1=O [Compound 181] 90

Data request, read-out Pigweed plant response rating (0 to 100 scale), for C#CCO/N=C(/c1cc(C)cc(Cl)c1)c1c(O)c(C)nn(C)c1=O [Compound 154] 90

---

Tested on: Italian ryegrass (Lolium multiflorum)
Assay: Test A preemergence, visual plant response rating
Assay type: in vivo
Settings: 500 g ai/ha Preemergence; approx. 10 days
From the text: […]
As shown below, each of these compounds has a reported Ryegrass, Italian plant response rating (0 to 100 scale) value.
Lab note: jot down the number only; don't add units.

- CON=C(c1cc(C)cs1)c1c(O)c(C)nn(C)c1=O (mixture of isomers) [Compound 133]: 0
- CON=C(c1cccc(C)c1F)c1c(O)c(C)nn(C)c1=O [Compound 70]: 10
- CO/N=C(/c1c(O)c(Cl)nn(C)c1=O)c1cccc2ccccc12 [Compound 145]: 10
- CON=C(c1c(O)c(C)nn(C)c1=O)c1cccc2ccoc12 [Compound 60]: 40
- CON=C(c1ccc(C)s1)c1c(O)c(C)nn(C)c1=O (mixture of isomers) [Compound 144]: 0
- CO/N=C(\c1ccc(F)cc1C)c1c(O)c(C)nn(C)c1=O [Compound 72]: 40

Data request, read-out Ryegrass, Italian plant response rating (0 to 100 scale), for CCO/N=C(/c1c(O)c(C)nn(C)c1=O)c1cc(Br)cc2ccccc12 [Compound 113] 100

Data request, read-out Ryegrass, Italian plant response rating (0 to 100 scale), for CON=C(c1c(O)c(C)nn(C)c1=O)c1cccc2sccc12 [Compound 58] 100
